TARGET_UNDER_TEST: T1, Human OSM (human, UniProt P13725 26-221)
T1 construct: Recombinant human OSM; also called hOSM; human Oncostatin M
T1 sequence: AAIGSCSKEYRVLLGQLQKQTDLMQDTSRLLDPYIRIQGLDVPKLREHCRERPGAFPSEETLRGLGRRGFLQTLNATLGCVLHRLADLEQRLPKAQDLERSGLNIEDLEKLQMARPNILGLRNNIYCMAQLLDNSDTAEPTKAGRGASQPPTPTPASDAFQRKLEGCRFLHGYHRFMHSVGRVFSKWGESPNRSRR
ASSAY_EXPLANATION: BIAcore kinetics
REPORTED_METRIC: koff (s⁻¹)
The response must be a number in s⁻¹ with no trailing unit.

[
  {
    "BINDER": "9G2, murine anti-OSM mAb (antibody, V domains shown, Mouse hybridoma mAb; also called 9G2/C1; 9G2.C1) VH: EVQLVESGGGLVEPGGSLKLSCAASGFTFSNYAMSWVRQTPEKRLEWVATISDGGSFTYYLDNVKGRFTISRDNAKNNLYLQMSHLKSDDTAMYYCARDVGHTTFWYFDVWGTGTTVTVSS VL: DIVLTQSPVFLVISLGQRATISCRASKSVSASGYNFMHWYQQKPGQPPKVLIKYASNLESGVPARFSGSGSGTDFTLNIHPVEEEDAVTYYCQHSREFPFTFGGGTKLEIK",
    "UNITS": "s⁻¹",
    "koff": 0.000121
  }
]

Prompt: Param item = anti human OSM mAb S168110G08(1)1A09 (10G8), murine (antibody, V domains shown, Mouse hybridoma mAb; also called 10G8/A9; 10G8.A9) VH: EMQLVESGEGLVEPGGSLKLSCAASGFTFSNYAMSWVRQTPEKSLEWVATISDGGSFTYYLDNVRGRFTISRDNAKNNLYLQMSHLKSDDTAMYYCARDVGHTTFWYFDVWGSGTAVTVSS VL: DIVLTQSPVFLVVSLGQRATISCRASKSVSAAGYNFMHWYQQKPGQPPKVLIKYASNLESGVPARFSGSGSGTDFTLNIHPVEEEDAVTYYCLHSREFPFTFGGGTNLEIK ; retrieve measured koff.
Completion: 6.14e-05

Prompt: Further, for 9G2 chimaera (antibody, human IgG1, kappa, V domains shown, Mouse V regions on human gamma 1 wild type and human kappa constant regions; also called 9G2 chimera) VH: EVQLVESGGGLVEPGGSLKLSCAASGFTFSNYAMSWVRQTPEKRLEWVATISDGGSFTYYLDNVKGRFTISRDNAKNNLYLQMSHLKSDDTAMYYCARDVGHTTFWYFDVWGTGTLVTVSS VL: DIVLTQSPVFLVISLGQRATISCRASKSVSASGYNFMHWYQQKPGQPPKVLIKYASNLESGVPARFSGSGSGTDFTLNIHPVEEEDAVTYYCQHSREFPFTFGGGTKLEIKR ?
Completion: 0.000168

Prompt: // next record 10G8 chimaera (antibody, human IgG1, kappa, V domains shown, Mouse V regions on human gamma 1 wild type and human kappa constant regions; the entries called VH/VL domain (chimera) are full chains; also called 10G8 chimera; 10G8 Chimæra) VH: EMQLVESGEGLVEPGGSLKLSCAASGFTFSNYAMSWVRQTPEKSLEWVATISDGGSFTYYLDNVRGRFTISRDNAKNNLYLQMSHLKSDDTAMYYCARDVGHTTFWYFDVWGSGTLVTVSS VL: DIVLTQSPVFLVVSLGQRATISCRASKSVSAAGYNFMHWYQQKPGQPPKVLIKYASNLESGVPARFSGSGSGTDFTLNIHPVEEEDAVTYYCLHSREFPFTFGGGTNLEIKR
Completion: 0.000152
